TARGET: CXCR4 (Homo sapiens)
Sequence (P61073 whole entry): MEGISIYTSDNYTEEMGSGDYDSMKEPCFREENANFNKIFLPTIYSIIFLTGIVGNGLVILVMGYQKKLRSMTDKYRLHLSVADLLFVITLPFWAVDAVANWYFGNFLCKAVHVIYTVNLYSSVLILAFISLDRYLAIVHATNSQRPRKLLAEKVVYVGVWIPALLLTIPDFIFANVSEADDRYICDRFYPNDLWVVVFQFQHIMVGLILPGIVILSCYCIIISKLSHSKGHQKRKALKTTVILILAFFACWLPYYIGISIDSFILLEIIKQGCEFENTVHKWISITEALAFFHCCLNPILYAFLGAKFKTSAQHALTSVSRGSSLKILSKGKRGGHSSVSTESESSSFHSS
MEASUREMENT DESCRIPTION: HPB-ALL CXCR4 competitive binding assay (12G5 binding assay)
Set-up: HPB-ALL cells were maintained in RPMI-1640 (Gibico) supplemented with 10% FBS (Hyclone); endogenous in cells; host or cells: HPB-ALL cells
APPLIED CONDITIONS: HPB-ALL cells; competition with APC-conjugated anti-human CXCR4 clone 12G5 at its EC80; 4° C. for 3 h; FACS
Experimental: HPB-ALL CXCR4 Competitive Binding Assay HPB-ALL cells were maintained in RPMI-1640 (Gibico) supplemented with 10% FBS (Hyclone). APC-conjugated anti-human CXCR4 was from Sungene. EC80 was first determined for 12G5 binding to CXCR4. Then the compounds for testing were added into 96-well plates serially diluted at a ratio of 1:3. […] Cell suspension was then added into the wells and with the addition of APC-conjugated anti-human CXCR4 clone 12G5 at its EC80 determined. […]
REPORTED PROPERTY: IC50 (nM)

1) Cc1ccnc([C@@H]2CCCN2Cc2cc(N3CCN(C)CC3)nc(C)n2)c1 [Compound C26] ... 206

P: Cc1nc([C@H]2C[C@@H](O[Si](C)(C)C(C)(C)C)CN2[C@H]2CCCc3cccnc32)cc(N2CCN(C)CC2)n1 [Compound C15]
Q: CSc1nc([C@@H](C)N(C)[C@@H]2CCCc3cccnc32)cc(N2CCN(C)CC2)n1 [Compound A35]
Could you determine which record has the numerically smaller IC50? Candidates: P and Q Pick one and reply with its label.
Q

Hello, the source for this data is patent US11396501B2, in case you need it.
